Please respond with reported MIC for every item in the list.
- Test system: Escherichia coli K-12 R5
- EXPERIMENTAL_PROTOCOL: microbe, parasite or virus in culture
- Format: cell-based
- PROTOCOL_CONDITIONS: K12R5; Escherichia coli K-12 R5; resistance mechanism AAC(6'); Mueller-Hinton agar, 37° C
Kindly provide the numeric value in mg/L only, without the unit symbol.

According to the records, this compound CN[C@@H]1[C@@H](O)[C@@H](O[C@H]2[C@H](N)C[C@H](N)[C@@H](O[C@H]3O[C@H](CN)CC[C@H]3N)C2(F)F)OC[C@]1(C)O [5FF-Genta-C1a, 5-deoxy-5,5-difluorogentamicin C1a] displays MIC of 12.5

According to the records, this compound NCC[C@H](O)C(=O)N[C@@H]1C[C@H](N)[C@@H](O[C@H]2O[C@H](CN)[C@@H](O)[C@H](O)[C@H]2O)C(F)(F)[C@H]1O[C@H]1O[C@H](CO)[C@@H](O)[C@H](N)[C@H]1O [Compound 5FF-amikacin] displays MIC of 25

====

- Tested on: Pseudomonas aeruginosa GN 315
- EXPERIMENTAL_PROTOCOL: MIC, standard serial dilution method
- Format: cell-based
- PROTOCOL_CONDITIONS: GN315; Pseudomonas aeruginosa GN 315; resistance mechanism AAC(6'); Mueller-Hinton agar, 37° C; read-out: MIC
PROPERTY: MIC (µg/mL)
Kindly provide the numeric value in µg/mL only, without the unit symbol.

Entry "CN[C@@H]1[C@@H](O)[C@@H](O[C@H]2[C@H](N)C[C@H](N)[C@@H](O[C@H]3O[C@H]([C@@H](C)NC)CC[C@H]3N)C2(F)F)OC[C@]1(C)O" , tested on Pseudomonas aeruginosa GN 315, has a reported MIC of 25

Entry "NC[C@H]1O[C@H](O[C@@H]2[C@@H](N)C[C@@H](N)[C@H](O[C@H]3O[C@H](CO)[C@@H](O)[C@H](N)[C@H]3O)C2(F)F)[C@H](N)C[C@@H]1O" , tested on Pseudomonas aeruginosa GN 315, has a reported MIC of 100

Entry "NCC[C@H](O)C(=O)N[C@@H]1C[C@H](N)[C@@H](O[C@H]2O[C@H](CN)CC[C@H]2N)C(F)(F)[C@H]1O[C@H]1O[C@H](CO)[C@@H](O)[C@H](N)[C@H]1O" , tested on Pseudomonas aeruginosa GN 315, has a reported MIC of 12.5

Entry "CN[C@@H]1[C@@H](O)[C@@H](O[C@H]2[C@H](N)C[C@H](N)[C@@H](O[C@H]3O[C@H]([C@@H](C)N)CC[C@H]3N)C2(F)F)OC[C@]1(C)O" , tested on Pseudomonas aeruginosa GN 315, has a reported MIC of 25

Entry NCC[C@H](O)C(=O)N[C@@H]1C[C@H](N)[C@@H](O[C@H]2O[C@H](CN)[C@@H](O)[C@H](O)[C@H]2O)[C@H](O)[C@H]1O[C@H]1O[C@H](CO)[C@@H](O)[C@H](N)[C@H]1O [Amikacin, amikacin, reference compound] , tested on Pseudomonas aeruginosa GN 315, has a reported MIC of 50

Entry "NCC[C@H](O)C(=O)N[C@@H]1C[C@H](N)[C@@H](O[C@H]2O[C@H](CN)[C@@H](O)C[C@H]2N)C(F)(F)[C@H]1O[C@H]1O[C@H](CO)[C@@H](O)[C@H](N)[C@H]1O" , tested on Pseudomonas aeruginosa GN 315, has a reported MIC of 6.25

====

Please respond with reported MIC for every item in the list.
- Test system: Escherichia coli JR66/W677
- EXPERIMENTAL_PROTOCOL: microbe, parasite or virus in culture
- Format: cell-based
- PROTOCOL_CONDITIONS: resistance mechanism APH(3')-II, ANT(2"), Mueller-Hinton agar, 37° C
Kindly provide the numeric value in µg/mL only, without the unit symbol.

According to the records, this molecule "NCC[C@H](O)C(=O)N[C@@H]1C[C@H](N)[C@@H](O[C@H]2O[C@H](CN)CC[C@H]2N)C(F)(F)[C@H]1O[C@H]1O[C@H](CO)[C@@H](O)[C@H](N)[C@H]1O" displays MIC of 0.39

According to the records, this molecule "NC[C@H]1O[C@H](O[C@@H]2[C@@H](N)C[C@@H](N)[C@H](O[C@H]3O[C@H](CO)[C@@H](O)[C@H](N)[C@H]3O)C2(F)F)[C@H](N)C[C@@H]1O" displays MIC of 1.56

According to the records, this molecule "CN[C@@H]1[C@@H](O)[C@@H](O[C@H]2[C@H](NC(=O)[C@@H](O)CCN)C[C@H](N)[C@@H](O[C@H]3O[C@H]([C@@H](C)NC)CC[C@H]3N)C2(F)F)OC[C@]1(C)O" displays MIC of 3.12

According to the records, this molecule "CN[C@@H]1[C@@H](O)[C@@H](O[C@H]2[C@H](NC(=O)[C@@H](O)CCN)C[C@H](N)[C@@H](O[C@H]3O[C@H]([C@@H](C)N)CC[C@H]3N)C2(F)F)OC[C@]1(C)O" displays MIC of 0.78

According to the records, this molecule "CN[C@@H]1[C@@H](O)[C@@H](O[C@H]2[C@H](N)C[C@H](N)[C@@H](O[C@H]3O[C@H](CN)CC[C@H]3N)C2(F)F)OC[C@]1(C)O" displays MIC of 1.56

According to the records, this molecule "CN[C@@H]1[C@@H](O)[C@@H](O[C@H]2[C@H](N)C[C@H](N)[C@@H](O[C@H]3O[C@H]([C@@H](C)N)CC[C@H]3N)C2(F)F)OC[C@]1(C)O" displays MIC of 3.12

According to the records, this molecule CN[C@@H]1[C@@H](O)[C@@H](O[C@@H]2[C@@H](O)[C@H](O[C@H]3O[C@H]([C@@H](C)N)CC[C@H]3N)[C@@H](N)C[C@H]2N)OC[C@]1(C)O [Genta-C2, gentamicin C2, reference compound] displays MIC of 25

According to the records, this molecule CN[C@@H]1[C@@H](O)[C@@H](O[C@@H]2[C@@H](O)[C@H](O[C@H]3O[C@H]([C@@H](C)NC)CC[C@H]3N)[C@@H](N)C[C@H]2N)OC[C@]1(C)O [Genta-C1, gentamicin C1, reference compound] displays MIC of 12.5

====

- EXPERIMENTAL_PROTOCOL: in vivo
- PROTOCOL_CONDITIONS: mouse, iv, pH 7
PROPERTY: LD50

According to the records, this compound "NC[C@H]1O[C@H](O[C@@H]2[C@@H](N)C[C@@H](N)[C@H](O[C@H]3O[C@H](CO)[C@@H](O)[C@H](N)[C@H]3O)C2(F)F)[C@H](N)C[C@@H]1O" displays LD50 of 260 mg/kg

According to the records, this compound NC[C@H]1O[C@H](O[C@H]2[C@H](F)[C@@H](O[C@H]3O[C@H](CO)[C@@H](O)[C@H](N)[C@H]3O)[C@H](N)C[C@@H]2N)[C@H](N)C[C@@H]1O [Compound 5F-TOB, 5,3'-dideoxy-5-fluorokanamycin B, reference compound] displays LD50 of ~180 mg/kg

According to the records, this compound "CN[C@@H]1[C@@H](O)[C@@H](O[C@H]2[C@H](N)C[C@H](N)[C@@H](O[C@H]3O[C@H]([C@@H](C)NC)CC[C@H]3N)C2(F)F)OC[C@]1(C)O" displays LD50 of ~200 mg/kg

According to the records, this compound "CN[C@@H]1[C@@H](O)[C@@H](O[C@H]2[C@H](N)C[C@H](N)[C@@H](O[C@H]3O[C@H](CN)CC[C@H]3N)C2(F)F)OC[C@]1(C)O" displays LD50 of ~240 mg/kg

According to the records, this compound "CN[C@@H]1[C@@H](O)[C@@H](O[C@H]2[C@H](N)C[C@H](N)[C@@H](O[C@H]3O[C@H]([C@@H](C)N)CC[C@H]3N)C2(F)F)OC[C@]1(C)O" displays LD50 of ~230 mg/kg

According to the records, this compound NCC[C@H](O)C(=O)N[C@@H]1C[C@H](N)[C@@H](O[C@H]2O[C@H](CN)[C@@H](O)[C@H](O)[C@H]2O)[C@H](O)[C@H]1O[C@H]1O[C@H](CO)[C@@H](O)[C@H](N)[C@H]1O [Amikacin, amikacin, reference compound] displays LD50 of > 300 mg/kg

According to the records, this compound "CCN[C@@H]1C[C@H](N)[C@@H](O[C@H]2OC(CN)=CC[C@H]2N)C(F)(F)[C@H]1O[C@H]1OC[C@](C)(O)[C@H](NC)[C@H]1O" displays LD50 of 47 mg/kg

According to the records, this compound "NCC[C@H](O)C(=O)N[C@@H]1C[C@H](N)[C@@H](O[C@H]2O[C@H](CN)[C@@H](O)[C@H](O)[C@H]2O)C(F)(F)[C@H]1O[C@H]1O[C@H](CO)[C@@H](O)[C@H](N)[C@H]1O" displays LD50 of > 300 mg/kg

According to the records, this compound "NC[C@@H]1CC[C@@H](N)[C@@H](O[C@@H]2[C@@H](N)C[C@@H](N)[C@H](O[C@H]3O[C@H](CO)[C@@H](O)[C@H](N)[C@H]3O)C2(F)F)O1" displays LD50 of 250 mg/kg
